All values here come from patent US12492223B2.

test system: HKx31 (H3N2); type: in vivo, mice; settings: 10 mg/kg single dose
READOUT: IL-6 levels in the BAL fluid

Look over these answered cases.
substance="9 (RSVEGS) [compound 9]" readout="IL-6 levels in the BAL fluid" observed_value="as effective"
substance="50 (RALQSS) [compound 50]" readout="IL-6 levels in the BAL fluid" observed_value="as effective"
substance="29 (RIIHNN) [compound 29]" readout="IL-6 levels in the BAL fluid" observed_value="as effective"
substance="42 (KALPRS) [compound 42]" readout="IL-6 levels in the BAL fluid" observed_value="as effective"
substance="44 (HIVESS) [compound 44]" readout="IL-6 levels in the BAL fluid" observed_value="as effective"

Input: Need IL-6 levels in the BAL fluid, item 52 (PALNTS) [compound 52]
Output: as effective

Input: Moving on to 49 (RALNST) [compound 49]
Output: as effective

Input: Moving on to 23 (RPVESS) [compound 23]
Output: as effective

Input: Moving on to 47 (RAVESS) [compound 47]
Output: as effective

====

biological target: recombinant LanCL1 (rLanCL1) (Homo sapiens, UniProt O43813); experiment: biochemical; format: binding
Sequence (O43813 whole entry, species assumed): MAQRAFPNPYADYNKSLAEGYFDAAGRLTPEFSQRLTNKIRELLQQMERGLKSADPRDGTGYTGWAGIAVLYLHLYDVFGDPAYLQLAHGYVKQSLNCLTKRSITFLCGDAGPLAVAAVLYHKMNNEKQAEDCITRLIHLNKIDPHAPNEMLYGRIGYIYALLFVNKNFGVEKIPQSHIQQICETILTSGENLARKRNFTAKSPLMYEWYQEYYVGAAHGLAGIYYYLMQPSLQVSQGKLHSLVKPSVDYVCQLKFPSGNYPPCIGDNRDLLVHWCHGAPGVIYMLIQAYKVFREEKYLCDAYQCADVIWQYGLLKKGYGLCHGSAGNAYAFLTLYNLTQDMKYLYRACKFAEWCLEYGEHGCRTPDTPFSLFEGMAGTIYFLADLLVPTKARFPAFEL
No end group written: not given here.
Answer each item with its documented EC50.

Input: Need EC50, item QEQLERALNSS [compound 37]
Output: 100 to 200 µM

Input: Moving on to RALNSS [compound 39]
Output: > 200 µM

====

test system: HKx31 (H3N2); format: in vivo, mice; set-up: key: 0: inactive; 1: less active than the peptide of SEQ ID NO:38; 2: comparable or more active than the peptide of SEQ ID NO:38; settings: mouse, in vivo, 10 mg/kg
Positions of bridges follow the written chain, without caps; N, C: chain ends. No end group written: not given here.
Answer each item with its documented PMN activity score.
Write the value as a bare number.

Input: Need PMN activity score, item 9 (RSVEGS) [compound 9]
Output: 2

Input: Moving on to 42 (KALPRS) [compound 42]
Output: 2

Input: Moving on to 41 (RALNSS; SITE 1 Arg 1 is bonded to Ser 6; SITE 6 Ser 6 is bonded to Arg 1) [compound 41]
Output: 1

Input: Moving on to 23 (RPVESS) [compound 23]
Output: 1

Input: Moving on to 29 (RIIHNN) [compound 29]
Output: 2

Input: Moving on to 50 (RALQSS) [compound 50]
Output: 1

Input: Moving on to 2 (CRSVEGSCGF; disulfide 1-8) [compound 2]
Output: 2

====

biological target: recombinant LanCL1 (rLanCL1) (Homo sapiens, UniProt O43813); assay: biochemical
Positions of bridges follow the written chain, without caps; N, C: chain ends. Residues, ends and D or L forms follow the SMILES beside them.
READOUT: EC50

Input: Need EC50, item CC[C@H](C)[C@H](NC(=O)[C@H](CCCNC(=N)N)NC(=O)[C@H](CC(C)C)NC(=O)[C@@H](N)Cc1ccc(O)cc1)C(=O)N[C@H](C(=O)N[C@@H](CCC(N)=O)C(=O)N[C@H]1CSSC[C@@H](C(=O)NCC(=O)N[C@@H](Cc2ccccc2)C(=O)O)NC(=O)[C@H](CO)NC(=O)CNC(=O)[C@H](CCC(=O)O)NC(=O)[C@H](C(C)C)NC(=O)[C@H](CO)NC(=O)[C@H](CCCNC(=N)N)NC1=O)C(C)C [compound 1] (H-YLRIVQCRSVEGSCGF-OH; disulfide 7-14)
Output: 50 to 100 µM

Input: Moving on to CC(C)C[C@@H]1NC(=O)[C@H](C)NC(=O)[C@H](CCCNC(=N)N)NC(=O)[C@@H](N)CSSC[C@@H](C(=O)O)NC(=O)[C@H](CO)NC(=O)[C@H](CO)NC(=O)[C@H](CC(N)=O)NC1=O [compound 40] (H-CRALNSSC-OH; disulfide 1-8)
Output: 50 to 100 µM

Input: Moving on to CC(C)C[C@@H]1NC(=O)[C@H](C)NC(=O)[C@H](CCCNC(=N)N)NC(=O)[C@H](CCC(=O)O)NC(=O)[C@H](CC(C)C)NC(=O)[C@H](CCC(N)=O)NC(=O)[C@H](CCC(=O)O)NC(=O)[C@H](CCC(N)=O)NC(=O)[C@@H](N)CSSC[C@@H](C(=O)O)NC(=O)[C@H](CO)NC(=O)[C@H](CO)NC(=O)[C@H](CC(N)=O)NC1=O [compound 38] (H-CQEQLERALNSSC-OH; disulfide 1-13)
Output: 50 to 100 µM
